Consider the following compounds and their measured Selectivity TH, absorbance (O.D.) at 405 nm readings.
biological target: Thrombin (TH) (Bos taurus, UniProt P00735); type: biochemical, Cow; settings: TABLE 3, PNA substrates; So = 0.54 mmole/l; pH 8.4; 37° C., 10 minutes; 1.0 NIH/ml
Sequence (P00735 44-625): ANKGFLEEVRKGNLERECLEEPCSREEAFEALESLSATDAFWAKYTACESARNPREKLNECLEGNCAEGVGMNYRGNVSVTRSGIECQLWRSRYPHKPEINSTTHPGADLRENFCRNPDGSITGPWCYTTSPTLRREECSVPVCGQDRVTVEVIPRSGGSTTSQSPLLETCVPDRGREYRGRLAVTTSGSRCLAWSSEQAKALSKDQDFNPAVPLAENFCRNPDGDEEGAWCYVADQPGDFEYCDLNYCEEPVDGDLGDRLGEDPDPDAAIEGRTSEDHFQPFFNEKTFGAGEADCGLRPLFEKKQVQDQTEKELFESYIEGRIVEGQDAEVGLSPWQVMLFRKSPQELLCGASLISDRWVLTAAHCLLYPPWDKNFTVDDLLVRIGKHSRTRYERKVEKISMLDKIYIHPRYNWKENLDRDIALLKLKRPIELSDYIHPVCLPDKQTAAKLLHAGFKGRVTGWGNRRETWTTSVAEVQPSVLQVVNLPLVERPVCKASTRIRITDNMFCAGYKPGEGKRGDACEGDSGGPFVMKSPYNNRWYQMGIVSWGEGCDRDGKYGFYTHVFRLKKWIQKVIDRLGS
Where a SMILES comes first, the peptide text is derived from it. [ ]: non-standard residue; d: D form. The star is where a group is joined. pNA = O=[N+]([O-])c1ccc(N*)cc1; Tos = Cc1ccc(S(=O)(=O)*)cc1
Observable: Selectivity TH, absorbance (O.D.) at 405 nm

{"columns": ["Compound", "Recorded Result"],
 "data": [
  ["NCCCC[C@H](NC(=O)[C@H](Cc1ccccc1)NC(=O)[C@H](N)CCC(=O)NCCCc1ccccc1)C(=O)Nc1ccc([N+](=O)[O-])cc1 [NPN-5]", 0],
  ["NCCCC[C@H](NC(=O)[C@H](Cc1ccccc1)NC(=O)[C@H](N)CCC(=O)NCCCCc1ccccc1)C(=O)Nc1ccc([N+](=O)[O-])cc1 [NPN-6]", 0],
  ["Cc1ccc(S(=O)(=O)NCCCC[C@@H](N)C(=O)N[C@@H](CC(C)C)C(=O)N[C@@H](CCCCN)C(=O)Nc2ccc([N+](=O)[O-])cc2)cc1 [NPN-1, HD-Lys(Tos)LeuLysPNA.2HBr] (H-[dK](Tos)-Leu-Lys-pNA)", 0]
]}
